target: CDK6/cyclin D1 (Homo sapiens, UniProt Q00534); assay: Inhibition of human CDK6/Cyclin D1 using RB protein as substrate preincubated for 20 mins followed by [gamma-33P]-ATP addition measure after 120 mins by filter binding method
Sequence (P24385 whole entry): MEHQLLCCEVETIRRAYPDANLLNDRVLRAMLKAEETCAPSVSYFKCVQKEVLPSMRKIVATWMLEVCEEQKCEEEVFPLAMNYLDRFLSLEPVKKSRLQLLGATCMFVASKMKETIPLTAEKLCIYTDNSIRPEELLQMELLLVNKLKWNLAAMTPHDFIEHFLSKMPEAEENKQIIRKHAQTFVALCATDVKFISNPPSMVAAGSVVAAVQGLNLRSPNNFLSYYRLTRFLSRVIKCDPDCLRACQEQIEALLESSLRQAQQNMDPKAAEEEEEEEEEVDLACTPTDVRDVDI
Sequence (Q00534 whole entry): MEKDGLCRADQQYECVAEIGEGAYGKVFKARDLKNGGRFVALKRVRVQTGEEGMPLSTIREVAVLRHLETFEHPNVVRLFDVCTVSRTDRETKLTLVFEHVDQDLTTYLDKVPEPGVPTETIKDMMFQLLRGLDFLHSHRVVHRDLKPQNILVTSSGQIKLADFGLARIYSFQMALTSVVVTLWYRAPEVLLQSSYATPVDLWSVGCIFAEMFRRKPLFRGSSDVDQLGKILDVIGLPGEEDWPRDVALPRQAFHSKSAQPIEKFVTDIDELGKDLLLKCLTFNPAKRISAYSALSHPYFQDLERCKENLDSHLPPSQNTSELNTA
pIC50: −log10 of the molar value.
quantityName: pIC50

# chemicalStructure, studyTarget, pIC50
measured = [
    ("CN1CCN(Cc2ccc(NC(=O)c3n[nH]cc3Nc3ncnc4ccsc34)cc2)CC1", "CDK6/cyclin D1 (Homo sapiens, UniProt Q00534)", 8.39),
    ("CN1CCN(Cc2ccc(NC(=O)c3n[nH]cc3Nc3ncnc4[nH]ccc34)cc2)CC1", "CDK6/cyclin D1 (Homo sapiens, UniProt Q00534)", 8.71),
    ("CN1CCN(Cc2ccc(NC(=O)c3n[nH]cc3Nc3ncnc4occc34)cc2)CC1", "CDK6/cyclin D1 (Homo sapiens, UniProt Q00534)", 8.29),
    ("O=C(Nc1ccc(CN2CCOCC2)cc1)c1n[nH]cc1Nc1ncnc2sccc12", "CDK6/cyclin D1 (Homo sapiens, UniProt Q00534)", 8.41),
]
